Biological target: p38 alpha (Homo sapiens, UniProt Q16539)
Sequence (Q16539 whole entry): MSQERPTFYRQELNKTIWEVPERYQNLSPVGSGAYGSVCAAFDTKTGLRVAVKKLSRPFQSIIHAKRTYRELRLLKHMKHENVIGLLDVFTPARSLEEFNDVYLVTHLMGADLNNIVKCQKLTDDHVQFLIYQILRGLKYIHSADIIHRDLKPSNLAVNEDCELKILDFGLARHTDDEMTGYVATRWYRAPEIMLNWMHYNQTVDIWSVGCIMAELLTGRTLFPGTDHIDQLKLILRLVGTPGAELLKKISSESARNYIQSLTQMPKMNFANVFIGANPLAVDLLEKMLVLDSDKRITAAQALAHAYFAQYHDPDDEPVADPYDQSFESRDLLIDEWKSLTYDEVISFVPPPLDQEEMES
Experiment: P38 alpha enzyme inhibition assay (Alphascreen kinase activity assay)
Conditions: 100 pM p38 alpha, 2 hours preincubation at 25° C., 250 μM ATP, ATF-2 fusion protein; read-out: p38α inhibition
Structures can show the parent of a compound that is named as a salt.
Listed next: entries and their corresponding IC50.
Observed property: IC50

| Compound | Observed measurement |
| --- | --- |
| CCC(CC)c1nnc2ccc(O[C@@H]3CC[C@H](NC(=O)Nc4cc(C(C)(C)C)nc(C(=O)NCC(C)(C)N(C)C)n4)c4ccccc43)cn12 [Example 175, formate salt] | < 1 nM |
| CC[C@H](C)c1nnc2ccc(O[C@@H]3CC[C@H](NC(=O)Nc4cc(C(=O)NCC(C)(C)N(C)C)nc(C(C)(C)C)c4)c4ccccc43)cn12 [Example 202, formate salt] | 1 to 10 nM |
| CN(C)CCNC(=O)c1nc(NC(=O)N[C@H]2CC[C@@H](Oc3ccc4nnc(CC(C)(C)C)n4c3)c3ccccc32)cc(C(C)(C)C)n1 [Example 59] | 1 to 10 nM |
